Experiment: qHTS Assay for Identification of Small Molecule Agonists for Hypoxia Response Element Signaling Pathway (AID 914); also: potency is read from the fitted curve at half-maximal effect
Conditions: ME-180 (cervical carcinoma) HRE-bla reporter, beta-lactamase ratio, CoCl2, 17 h
Text: NIH Molecular Libraries Screening Centers Network [MLSCN] NIH Chemical Genomics Center [NCGC] Hypoxia-inducible factor-1 (HIF-1) is the major hypoxia-regulated transcription factor that controls cellular responses to low oxygen concentration. HIF-1 is composed of two subunits: hypoxia responsive HIF-1 alpha and constitutively expressed HIF-1 beta, which is also known as aryl hydrocarbon receptor nuclear translocator. […]
Records with an inconclusive call do not appear. Activity calls are given as the source filed them. Calls follow the shape of the dose curve; as a rule, active = well fitted activation curve with a large enough effect in the signal ratio, with a control signal flat (not every such curve was filed as active); inconclusive = small, poorly fitted or top-dose-only effect, or effect the other way, or a change in a side signal; inactive = flat fitted curve, though single readings scatter; the % refers to the signal ratio.
Would you kindly list Potency for each of these molecules?

Need Potency of `CN(C)c1ncc2nc(-c3ccccc3)c(=O)n(Cc3ccc(F)cc3)c2n1` , thanks. 0.501 µM (active)

Follow-up entry: `CC(=O)NCCNc1ncnc2ccc(-c3c(C)noc3C)cc12` 3.16 µM (active)

Now try `N#Cc1cccc(-c2nc3cnc(N4CCOCC4)nc3n(C3CC3)c2=O)c1` . 3.16 µM (active)

Another molecule to look at: `Cn1c(=O)c(-c2ccc(Cl)cc2)nc2cnc(N3CCOCC3)nc21` 2.51 µM (active)

Record: `COCCn1c(=O)c(-c2ccc(Cl)cc2)nc2cnc(Nc3ccccc3)nc21` 2.51 µM (active)

Then `COc1ncc2nc(-c3cccs3)c(=O)n(CCc3ccccc3)c2n1` ? 3.16 µM (active)

Now consider `COc1cccc(Cn2c(=O)c(-c3cccc(C#N)c3)nc3cnc(N4CCN(C)CC4)nc32)c1` and answer again. 3.16 µM (active)

Next molecule: `COCCn1c(=O)c(-c2cn(C)c3ccccc23)nc2cnc(N3CCNCC3)nc21` 3.16 µM (active)

Item: `CCNc1ncc2nc(-c3ccccc3)c(=O)n(Cc3cccs3)c2n1` 3.16 µM (active)

Next record, please: `COc1ccc(-c2nc3cnc(N4CCN(C)CC4)nc3n(-c3ccc(OC)cc3)c2=O)cc1` 3.16 µM (active)

Quick one: `Cn1cc(-c2nc3cnc(N4CCNCC4)nc3n(CCC#N)c2=O)c2ccccc21` 3.16 µM (active)

Now the same for `COc1ncc2nc(-c3ccc(F)cc3)c(=O)n(C)c2n1` 3.16 µM (active)

Here is the next molecule: `CN1CCN(c2ncc3nc(-c4cccs4)c(=O)n(CCC#N)c3n2)CC1` 3.16 µM (active)

Proceed to `Cc1noc(C)c1-c1ccc2ncnc(NCc3cccnc3)c2c1` 3.16 µM (active)

Can you handle `CN1CCN(c2ncc3nc(-c4ccccc4)c(=O)n(-c4ccccc4)c3n2)CC1` next? 3.16 µM (active)

Now this one: `CN1CCN(c2ncc3nc(-c4cc(F)cc(F)c4)c(=O)n(CCc4ccccc4)c3n2)CC1` 3.16 µM (active)

Same again, this time with `O=c1c(-c2ccccc2)nc2cnc(N3CCNCC3)nc2n1C1CC1` 3.16 µM (active)

Would you kindly repeat that for `Cn1cc(-c2nc3cnc(Oc4cccc(Cl)c4)nc3n(CCC#N)c2=O)c2ccccc21` ? 1.58 µM (active)

Entry to check: `CN1CCN(c2ncc3nc(-c4ccc(F)cc4)c(=O)n(Cc4cccs4)c3n2)CC1` 3.16 µM (active)

`COc1ccc(-n2c(=O)c(-c3ccccc3)nc3cnc(N4CCNCC4)nc32)cc1` ? 3.16 µM (active)

Now give it for `CN(C)c1ncc2nc(-c3ccc(F)cc3)c(=O)n(Cc3ccc(F)cc3)c2n1` too. 3.16 µM (active)
